B1: Chromodomain-helicase-DNA-binding protein 4, residues 444 to 496; numbered along this chain, Q14839 (parent)
chain: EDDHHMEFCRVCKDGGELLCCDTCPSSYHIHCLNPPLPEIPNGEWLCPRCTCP

Variants of: B1
test name: abundance fitness (aPCA) (normalised: wild type 0, dead -1); higher = more abundant; growth selection in yeast, the domain comes from the species named
test parameters: Homo sapiens
Parameter class (string): assigned from measured abundance fitness. Ranges: A (below -0.3), B (-0.3 to below -0.07), C (-0.07 or more)

INPUT: Category of C20F :
OUTPUT: C

INPUT: Pick a category. Item: W45F
OUTPUT: B

INPUT: Into which category would you place R49S ?
OUTPUT: B

INPUT: Which class is correct for the following variant? L37I
OUTPUT: C

INPUT: Exam item: assign R49Y to the correct category.
OUTPUT: B

INPUT: Class? Entry: E1I
OUTPUT: B

INPUT: Category of R49D :
OUTPUT: C

INPUT: Could you tell me which band C24E belongs to?
OUTPUT: A

INPUT: Band for the recorded abundance fitness of C50V ?
OUTPUT: A
